Examples of molecules with documented MPC follow.
- System: P. acnes MTCC 1951
- Assay type: cell-based, Propionibacterium acnes
- run-conditions: P. acnes, 10^10 cells inoculum
endpoint-label: MPC (µg/mL)

INSERT INTO results (molecule, meas_value) VALUES
  ('CC1CCc2c(N3CCC(O)CC3)c(F)cc3c(=O)c(C(=O)O)cn1c23 (stereo not shown)', 1.2),
  ('N[C@@H]1CCCCN(c2c(F)cc3c(=O)c(C(=O)O)cn(C4CC4)c3c2Cl)C1', 2),
  ('CC1Sc2c(C(=O)O)c(=O)c3cc(F)c(N4CCNCC4)cc3n21 (stereo not shown)', 1.2);
